PROTOCOL DESCRIPTION: In-vivo bioavailability
Set-up: species or system rats
COND: male, albino, rat, plasma, po, 15 mg/kg
REPORTED ENDPOINT: Cmax (ng/mL)
Form entry: value (ng/mL) — number only.

Q: Please look up its Cmax: COC1=CC(=O)C[C@@H](C)[C@]12Oc1c(Cl)c(OC)cc(OC)c1C2=O
Result: 1810

----------
PROTOCOL DESCRIPTION: In-vivo bioavailability
Design: species or system rats
COND: male, albino, rat, plasma, po, 15 mg/kg
REPORTED ENDPOINT: k el
Phrase the answer as number then unit, nothing more needed.

Q: Please look up its k el: COC1=CC(=O)C[C@@H](C)[C@]12Oc1c(Cl)c(OC)cc(OC)c1C2=O
Result: 1.03e-05 s⁻¹

----------
PROTOCOL DESCRIPTION: In-vivo bioavailability
Parameters: species or system rats
COND: male, albino, rat, plasma, po, 15 mg/kg
REPORTED ENDPOINT: Tmax (h)
Form entry: value (h) — number only.

Q: Please look up its Tmax: COC1=CC(=O)C[C@@H](C)[C@]12Oc1c(Cl)c(OC)cc(OC)c1C2=O
Result: 2

----------
PROTOCOL DESCRIPTION: Phase solubility study of GRI with β-CD, NS2 and NS3
Type: physicochemical
COND: distilled water
REPORTED ENDPOINT: solubility

Q: Please look up its solubility: COC1=CC(=O)C[C@@H](C)[C@]12Oc1c(Cl)c(OC)cc(OC)c1C2=O
Result: ~35 µM
